This collection of values is drawn from paper PMC8504695.

value_kind: pKd
Kindly note that pKd refers to -log10 of the concentration in mol/L and answer with the value alone.

Reported pKd for human ACE2 (Homo sapiens), given O=C(N/N=C/c1cc([N+](=O)[O-])ccc1Cl)c1cc(O)cc(O)c1 [DC-RA016] ?
3.83

* * *

Experiment: in vitro
Conditions: human
value_kind: CC50

Entry `COc1cc(-c2nc3ccccc3s2)ccc1OCC(=O)Nc1ccc(C)cc1` : reported CC50 = ?
> 100 µM

Value lookup for CC50; key = `CCOc1ccc(N(CC(=O)Nc2ccccc2C(=O)NCc2ccco2)S(=O)(=O)c2ccc(OC)c(OC)c2)cc1`
> 100 µM

I'd like to know its CC50. The molecule in question is `O=C(N/N=C/c1cc([N+](=O)[O-])ccc1Cl)c1cc(O)cc(O)c1`
> 100 µM

Would you kindly share the measured CC50 for `COc1ccc(C(=O)C[C@]2(O)C(=O)N(CCOc3ccccc3OC)c3ccccc32)c(OC)c1` ?
24.7 µM
